- Tested on: RXF 393
- assay_notes: NCI tumour cell line growth inhibition, 48 h
Active and inactive are the calls of the source. Rule as the data show it: active = GI50 up to about 1.1 µM and inactive = higher.
GI50 reference
readout_label: GI50

| compound | readout_label | measured |
| --- | --- | --- |
| CSc1nc2c(nc(N)n2C2OC(CO)C(O)C(O)C2O)c(=O)[nH]1 (centres undefined) | GI50 | > 100 µM (inactive) |
| CCOC(=O)/C=C(\C(=O)OCC)n1cc(C)c(=O)n(Cc2cnnn2COCCOC(C)=O)c1=O | GI50 | 3.28 µM (inactive) |
| CCc1ccccc1NC(=O)CCc1nnc(S)[nH]1 | GI50 | > 100 µM (inactive) |
| Cc1ccc(NC(=O)/C(CC2Nc3c(ccc4c3C(=O)c3ccccc3C4=O)NC2O)=N/NC(C)(C)C)cc1 (centres undefined) | GI50 | 11.1 µM (inactive) |
| O=C(O)C1C2CCC(O2)C1C(=O)NCc1cccnc1 (centres undefined) | GI50 | > 100 µM (inactive) |
| COC1=CC(=O)C(Br)=CC1=O | GI50 | 18.2 µM (inactive) |
| Cc1ccc(C(=O)CCC2C(=O)CC(C)(C)CC2=O)cc1 | GI50 | > 100 µM (inactive) |
| Cc1c(C(=O)C/C(=N/NC(=O)C[N+](C)(C)C)C(=O)Nc2ccc(Cl)cc2)[n+]([O-])c2ccccc2[n+]1[O-] | GI50 | > 100 µM (inactive) |
| S=C1N=C(Cl)/C(=C\c2ccco2)N1 | GI50 | > 100 µM (inactive) |
